tested_system: UniProtKB P00734
assay_text: The compound was evaluated for the inhibitory activity against human thrombin
pKi: −log10 of the molar value.
experimental_readout: pKi

P = CC(=O)NCCC1CCN(C(=O)C(CCCN=C(N)N)NS(=O)(=O)c2cccc3c2NCC(C)C3)CC1 (configuration not stated)
Q = CC1CNc2c(cccc2S(=O)(=O)NC(CCCN=C(N)N)C(=O)N2CCC(CCCl)CC2)C1 (configuration not stated)
Query :: Among P and Q , which shows a numerically higher pKi result? Record your answer as the label of the chosen record.
Result :: Q
(Q: 7.96, P: 7.18)

====

tested_system: Prothrombin (Bos taurus, UniProt P00735)
pKi: −log10 of the molar value.
experimental_readout: pKi

CC1CNc2c(cccc2S(=O)(=O)NC(CCCNC(=N)N)C(=O)N2CCC[C@@H](CCO)C2)C1 (some centres not stated) | 5.87
CC1CNc2c(cccc2S(=O)(=O)NC(CCCN=C(N)N)C(=O)N2CCCCC2CO)C1 (configuration not stated) | 7.19
CC1CNc2c(cccc2S(=O)(=O)NC(CCCN=C(N)N)C(=O)N2CCCC2)C1 (configuration not stated) | 6.10

1 = CC1CNc2c(cccc2S(=O)(=O)NC(CCCN=C(N)N)C(=O)N2CCC(CCCCCCC(=O)O)CC2)C1 (configuration not stated)
2 = CC1CNc2c(cccc2S(=O)(=O)NC(CCCN=C(N)N)C(=O)N2CCC(CCOCCCC(=O)O)CC2)C1 (configuration not stated)
3 = CC1(C)CNc2c(cc(Cl)cc2S(=O)(=O)NC(CCCN=C(N)N)C(=O)N2CCC(CCOC(=O)C(C)(C)C)CC2)C1 (configuration not stated)
4 = CC1CNc2c(cccc2S(=O)(=O)NC(CCCN=C(N)N)C(=O)N2CCC(CCC(=O)O)CC2)C1 (configuration not stated)
Query :: Descending sort on pKi required. Put the labels in the order asked and list them.
Result :: 3, 2, 1, 4
(3: 7.25, 2: 6.01, 1: 5.70, 4: 4.74)

A = CC(C)(c1ccccc1)c1cccc(S(=O)(=O)NC(CCCN=C(N)N)C(=O)N2CCC[C@H]2CO)c1 (some centres not stated)
B = CC1CNc2c(cccc2S(=O)(=O)NC(CCCN=C(N)N)C(=O)N2CCC(CCC(=O)NCCC(=O)O)CC2)C1 (configuration not stated)
C = CC1CNc2c(cccc2S(=O)(=O)NC(CCCNC(=N)N)C(=O)N2CCC(CCOC(=O)CCCC(=O)O)CC2)C1 (configuration not stated)
D = CC1CNc2c(cccc2S(=O)(=O)NC(CCCNC(=N)N)C(=O)N2Cc3ccccc3CC2CO)C1 (configuration not stated)
Query :: Hi! Can you put these in order of pKi, lowest number first? Put the labels in the order asked and list them.
Result :: A, D, B, C

====

tested_system: Prothrombin (Homo sapiens)
assay_text: Inhibitory activity against human thrombin
pKi: −log10 of the molar value.
experimental_readout: pKi

CC1(C)CNc2c(cccc2S(=O)(=O)NC(CCCN=C(N)N)C(=O)N2CCC(CC(F)F)CC2)C1 (stereo not given) | 8.22
CC1(C)CNc2c(cc(Cl)cc2S(=O)(=O)NC(CCCN=C(N)N)C(=O)N2CCC(CC(F)F)CC2)C1 (stereo not given) | 7.92
CC1(C)CNc2c(cccc2S(=O)(=O)NC(CCCN=C(N)N)C(=O)N2CCC(CCF)CC2)C1 (stereo not given) | 8.24

A = CC(=O)NCCC1CCN(C(=O)C(CCCN=C(N)N)NS(=O)(=O)c2cccc3c2NCC(C)(C)C3)CC1 (stereo not given)
B = CC1(C)CNc2c(cc(Cl)cc2S(=O)(=O)NC(CCCN=C(N)N)C(=O)N2CCC(CCF)CC2)C1 (stereo not given)
Query :: Among A and B , which shows a numerically higher pKi result? Record your answer as the label of the chosen record.
Result :: B
(B: 8.18, A: 7.37)

Sourced from ChEMBL document CHEMBL1132465
